Experiment: GSK_TCMDC: Inhibition Frequency Index (IFI). The number of non-kinase HTS assays where a compound showed > 50 % inhibition, expressed as a percentage of the number of such assays in which the compound was tested
Type: functional
Whole data set: some 13,000 compounds, median “IFI” near 4, cut for the highest 2% near 17. Shown is part of a subset that was picked to be rich in the highest values.
Binary call on IFI: 1.0 from 8% upward, 0.0 beneath that.

Previously resolved entries follow.
Q. Could you verify whether the entry "O=C(Nc1cccc(CN2CCCN(CCc3ccccc3)CC2)c1)c1ccc(Cl)c(Cl)c1" shows IFI of no less than 8%?
A. 0.0

Q. Now consider "CCNC(=O)Nc1cccc(-c2cccc(-c3nc4cccc(C)c4[nH]3)c2)c1" and answer again.
A. 0.0

Q. Now consider CC(Cc1ccc(OCCN2CCN(c3cccc(Cl)c3)CC2)cc1)NCC(O)c1cccc(C(F)(F)F)c1 (stereo not given) and answer again.
A. 1.0

Q. Now consider "Cc1ccc(OCC2CCN(c3ncc(C(=O)NC4CC4)cc3Cl)CC2)cc1" and answer again.
A. 0.0

Q. Now consider "COc1cc(C(=O)Nc2ccc(-c3nc4ccccc4[nH]3)cc2)cc(OC)c1OC" and answer again.
A. 0.0

Q. Now consider "CCCCCCOc1ccc(/C(N)=N\Cc2ccccc2)c2c1CCCC2" and answer again.
A. 1.0

Next:
Q. Could you verify whether the entry "Cc1cc(N[C@@H](Cc2ccccc2)C(=O)NCCc2ccccc2)nc(NCCOc2ccccc2)n1" shows IFI of no less than 8%?
A. 0.0

Q. Now consider "O=C(Nc1ccc(C(=O)Nc2ccc(C3=NCCN3)cc2)cc1)Nc1ccc(C2=NCCN2)cc1" and answer again.
A. 0.0

Q. Now consider "O=c1c2ccc(F)cc2sn1-c1ccc(Cl)cc1" and answer again.
A. 1.0

Q. Now consider "COc1ccc(Cn2c(Nc3cccc(C(F)(F)F)c3)nc3cc(C(=O)NCCCN(C)C)ccc32)cc1Cl" and answer again.
A. 0.0

Q. Now consider "CCCCCOc1ccc(C(=NC)N(CCCCC)CCCCC)c2ccccc12" and answer again.
A. 1.0

Q. Now consider "Cc1cccc(NC(=O)Nc2cccc(-c3ccc(-c4nc5cc(C(F)(F)F)ccc5[nH]4)cc3)c2)c1" and answer again.
A. 0.0

Q. Now consider "O=C(Nc1ccccc1Cc1ccccc1)c1ccccc1C(F)(F)F" and answer again.
A. 0.0

Q. Now consider "O=C(Nc1cccc(C(F)(F)F)c1)Nc1ccc(Cl)c(C(F)(F)F)c1" and answer again.
A. 1.0

Q. Now consider "Cc1c(Cl)cccc1N=C(S)NN=Cc1ccccn1" and answer again.
A. 0.0

Q. Now consider O=C(Oc1ccc(C2CNCCc3c2cc(OC(=O)c2ccc(O)cc2)c(OC(=O)c2ccc(O)cc2)c3Cl)cc1)c1ccc(O)cc1 (stereo not given) and answer again.
A. 0.0

Q. Now consider CC(Cc1ccc(OCCN2CCN(c3cccc(Cl)c3)CC2)cc1)NCC(O)c1cccc(Cl)c1 (stereo not given) and answer again.
A. 1.0

Q. Now consider CCCCCCN(CCCCCC)CC(O)c1c(OC)ccc2ccccc12 (stereo not given) and answer again.
A. 0.0

Q. Now consider "Cc1ccc(NC(=O)c2cnc(N3CCN(c4ccncc4)CC3)c(Cl)c2)cc1" and answer again.
A. 1.0
